The following compounds have recorded pIC50 on Cyclin-dependent kinase 5/CDK5 activator 1 (Homo sapiens).
Sequence (Q00535 whole entry): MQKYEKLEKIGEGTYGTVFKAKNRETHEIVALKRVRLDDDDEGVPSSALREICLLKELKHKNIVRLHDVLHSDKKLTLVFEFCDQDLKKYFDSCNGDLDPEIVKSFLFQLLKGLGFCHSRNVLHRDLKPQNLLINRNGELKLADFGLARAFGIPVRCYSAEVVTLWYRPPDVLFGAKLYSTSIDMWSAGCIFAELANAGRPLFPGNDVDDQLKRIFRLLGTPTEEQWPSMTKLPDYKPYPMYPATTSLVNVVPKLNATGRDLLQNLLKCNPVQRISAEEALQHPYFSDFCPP
Sequence (Q15078 whole entry, further chain): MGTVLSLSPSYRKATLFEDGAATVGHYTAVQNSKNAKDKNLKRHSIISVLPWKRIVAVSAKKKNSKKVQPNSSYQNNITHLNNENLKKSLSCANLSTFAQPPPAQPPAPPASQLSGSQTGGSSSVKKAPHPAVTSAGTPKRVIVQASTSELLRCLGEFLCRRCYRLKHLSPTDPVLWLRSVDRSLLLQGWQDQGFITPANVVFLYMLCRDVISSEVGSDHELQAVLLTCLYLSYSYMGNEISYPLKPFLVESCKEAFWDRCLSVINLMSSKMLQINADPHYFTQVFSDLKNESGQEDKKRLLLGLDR
Please treat pIC50 as minus the base-10 logarithm of the molar concentration.

The following compounds have reported results that may help.
{"RECORD_SMILES": "COC(=O)CSc1nnc(Cc2c(NC(=O)c3ccccc3)sc3c2CCCC3)n1NC(=O)c1ccc(Cl)cc1", "PROPERTY_NAME": "pIC50", "ENDPOINT_RESULT": 6.53}
{"RECORD_SMILES": "COC(=O)CSc1nnc(Cc2c(NC(=O)CCl)sc3c2CCCC3)n1NC(C)=O", "PROPERTY_NAME": "pIC50", "ENDPOINT_RESULT": 6.16}
{"RECORD_SMILES": "CC(=O)Nn1c(Cc2c(NC(=O)c3ccccc3)sc3c2CCCC3)nnc1SCc1nnc(S)n1N", "PROPERTY_NAME": "pIC50", "ENDPOINT_RESULT": 5.21}

Enter reported pIC50 observed with Cyclin-dependent kinase 5/CDK5 activator 1 (Homo sapiens) for `CC(=O)Nn1c(Cc2c(NC(=O)CCl)sc3c2CCCC3)nnc1SCC#N`
7.21

Enter reported pIC50 observed with Cyclin-dependent kinase 5/CDK5 activator 1 (Homo sapiens) for `CC(=O)Nn1c(Cc2c(NC(=O)CCl)sc3c2CCCC3)n[nH]c1=S`
6.16

Enter reported pIC50 observed with Cyclin-dependent kinase 5/CDK5 activator 1 (Homo sapiens) for `O=C(CSc1nnc(Cc2c(NC(=O)c3ccccc3)sc3c2CCCC3)n1NC(=O)c1ccccc1)NNC(=O)c1ccccc1`
6.33

Enter reported pIC50 observed with Cyclin-dependent kinase 5/CDK5 activator 1 (Homo sapiens) for `CC(=O)NNC(=O)CSc1nnc(Cc2c(NC(C)=O)sc3c2CCCC3)n1NC(C)=O`
6.49

Enter reported pIC50 observed with Cyclin-dependent kinase 5/CDK5 activator 1 (Homo sapiens) for `COC(=O)CSc1nnc(Cc2c(NC(C)=O)sc3c2CCCC3)n1NC(=O)c1ccc(Cl)cc1`
6.41

Enter reported pIC50 observed with Cyclin-dependent kinase 5/CDK5 activator 1 (Homo sapiens) for `COC(=O)CSc1nnc(Cc2c(NC(=O)CCl)sc3c2CCCC3)n1NC(=O)c1ccc(Cl)cc1`
6.35
